method-summary: Pseudomonas biofilm growth suppression – PAO1 strain, BacTiter-Glo luminescence, LB-PBS, primary screen (AID 1144)
test-context: P. aeruginosa PAO1 biofilm, 12 h, higher = more signal
Activity calls are given as the source filed them. No rule for the calls is given here.
quantity-name: z-score

Some compounds with known z-score results, for comparison:
Task item: Need z-score, item COCCCNC(=O)[C@@]1(Sc2ccc(C)cc2)CC(=O)N(Cc2ccccc2Cl)[C@@H]1c1ccc(CO)cc1
Reply: -0.915 (inactive)

Task item: Likewise for O=C(NC1CC1)[C@@H]1c2ccccc2C(=O)N(Cc2cc(F)cc(C(F)(F)F)c2)[C@H]1c1ccc(CO)cc1 ?
Reply: -0.435 (inactive)

Task item: Likewise for CC(C)=CCCC(C)=CC(O)C1C=CC2C(=O)N(c3ccccc3)C(=O)C2N1Nc1ccc(C(C)C)cc1 (stereo not given) ?
Reply: -0.603 (inactive)

New cases:
Task item: Need z-score, item CC(C)Cc1ccc(CN2CC[C@@H](N)C2)cc1
Reply: -1.53 (inactive)

Task item: Likewise for COc1ccc([Si](C)(C)[C@H]2[C@H](CCO)O[C@@]3(C(=O)N(Cc4ccccc4)c4ccc(N5CCCCC5=O)cc43)[C@@H]2C)cc1 ?
Reply: -1.98 (inactive)

---

method-summary: probe aCHRDL2 binding to arrayed compounds – biochemical, biotinylated probe, 635/667 nm fluorescence, primary screen (AID 1100)
test-context: small-molecule microarray, higher = more signal
Consider the following compounds and their measured composite z-score readings.
In your answer, state the number alone without any accompanying words.

Some compounds with known composite z-score results, for comparison:
Task item: Need composite z-score, item COc1ccc(CCNC(=O)[C@@]2(c3ccc([N+](=O)[O-])cc3)CC(=O)N(CC34CC5CC(CC(C5)C3)C4)[C@@H]2c2ccc(CO)cc2I)cc1
Reply: -0.263

Task item: Likewise for COCCCNC(=O)[C@@H]1c2ccccc2C(=O)N(Cc2ccccc2OC)[C@H]1c1ccc(CO)cc1 ?
Reply: 0.287

Task item: Likewise for O=C1C2C=CC(C(O)COCc3ccccc3)N(Nc3ccc([N+](=O)[O-])cc3)C2C(=O)N1c1ccccc1 (centres undefined) ?
Reply: 0.889

New cases:
Task item: Need composite z-score, item O=C1OCCC=C[C@H]2OC34C=CCN(c5ccc(Cl)cc5)C(=O)[C@H]3N(CCCO)C(=O)[C@@H]4C12 (some centres undefined)
Reply: 0.0093

Task item: Likewise for CC(C)(C)OC(=O)CC[C@]1(C(=O)NCCN2CCOCC2)COC(c2ccc(OCCCO)cc2)=N1 ?
Reply: 0.465

Task item: Likewise for COc1cc2c(cc1O)C(c1cccs1)N(Cc1cccc(OC(F)(F)F)c1)CC2 (centres undefined) ?
Reply: 0.154

Task item: Likewise for Cc1ccc(/C=C/C=O)cc1 ?
Reply: 0.44

---

target-or-test-system: Left-right determination factor 2 (Homo sapiens) (UniProt O00292)
Sequence (O00292 whole entry, looked up): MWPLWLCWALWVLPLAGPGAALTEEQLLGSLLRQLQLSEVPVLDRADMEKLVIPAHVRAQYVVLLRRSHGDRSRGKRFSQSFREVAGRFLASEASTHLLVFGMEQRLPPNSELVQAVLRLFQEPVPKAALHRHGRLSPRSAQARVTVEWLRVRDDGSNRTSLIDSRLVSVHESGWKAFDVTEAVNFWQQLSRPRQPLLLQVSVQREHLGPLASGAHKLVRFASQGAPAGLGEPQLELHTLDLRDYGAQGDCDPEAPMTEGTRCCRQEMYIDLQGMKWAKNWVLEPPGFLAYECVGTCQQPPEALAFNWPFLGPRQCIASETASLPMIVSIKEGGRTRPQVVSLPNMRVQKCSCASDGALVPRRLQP
method-summary: small molecules binding LEFTY2 protein – biochemical, small-molecule microarray, 635 nm fluorescence scan, primary screen (AID 1110)
test-context: higher = more signal
quantity-name: composite z-score
In your answer, state the number alone without any accompanying words.

Task item: Need composite z-score, item O=C(O)C1N=C(c2ccc(OCCCO)cc2)N(c2ccccc2)O1 (stereo not drawn)
Reply: 0.509

Task item: Likewise for COC(=O)[C@H](Cc1ccccc1)N[C@H](/C=C/C1CC1)[C@@H](O)Cc1ccccc1 ?
Reply: -0.276

Task item: Likewise for CC(C)[Si](C#C[Si](C(C)C)(C(C)C)C(C)C)(O[C@H](C)c1cn(Cc2ccccc2)nn1)C(C)C ?
Reply: 0.409

Task item: Likewise for O=C1O[C@@H](c2ccccc2)[C@@H](c2ccccc2)N2[C@@H](c3ccc(OCCO)cc3)[C@]3(C(=O)Nc4ccc(C#CC5=CCCCC5)cc43)[C@@H](C(=O)N3CCCCCCC3)[C@H]12 ?
Reply: 1.59

Task item: Likewise for COC(=O)c1c(CC[C@@H](CO)NC(=O)N[C@H](Cc2ccccc2)Cn2cc(-c3ccccn3)nn2)oc(C(C)=O)c1C(=O)OC ?
Reply: -0.0385
